Record form. Attribute: pIC50. Fill in for each entry.
// returns pIC50 (minus log10 of molar concentration), number only

Req: Reported pIC50 for L-lactate dehydrogenase A chain (Homo sapiens), given O=C1OC2(CCc3c(-c4ccccc4)cccc32)CC(O)=C1Sc1ccccc1Cl (single isomer, unassigned; enantiomer b) ?
Resp: 6.21

Req: Find pIC50 (L-lactate dehydrogenase A chain (Homo sapiens)) for the entry O=C1OC(c2ccc(Cl)cc2)CC(O)=C1Sc1ccccc1Cl (centres undefined)
Resp: 4.80

Req: Lab request: please report pIC50 under test system L-lactate dehydrogenase A chain (Homo sapiens) for O=C1OC(c2ccccc2Cl)CC(O)=C1Sc1ccccc1Cl (centres undefined)
Resp: 5.26
